Ref: paper PMC9969401

# Target Or System: GST-tagged Eg5 motor domain (Homo sapiens, UniProt P52732)
# Sequence (P52732 18-359 limits assumed): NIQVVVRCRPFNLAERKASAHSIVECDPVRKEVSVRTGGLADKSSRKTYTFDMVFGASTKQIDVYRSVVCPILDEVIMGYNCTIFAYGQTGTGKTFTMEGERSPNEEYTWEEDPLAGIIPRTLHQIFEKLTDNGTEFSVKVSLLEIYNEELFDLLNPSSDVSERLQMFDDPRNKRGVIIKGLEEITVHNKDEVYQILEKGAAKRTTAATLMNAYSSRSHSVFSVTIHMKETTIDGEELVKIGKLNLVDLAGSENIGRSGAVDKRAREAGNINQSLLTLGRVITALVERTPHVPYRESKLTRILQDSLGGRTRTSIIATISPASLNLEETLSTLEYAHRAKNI
pIC50: −log10 of the molar value.
Property Name: pIC50

CCOC(=O)c1sc(NC(=O)CCNC(=O)c2cccc(-c3noc(C)n3)c2)nc1C
< 3.70
CCOC(=O)c1sc(NC(=O)CCNC(=O)c2cccc(C)c2)nc1C
< 3.70

Report pIC50 for CCCc1cc(C(=O)N[C@H](Cc2ccc(-c3cccc(OC(F)(F)F)c3)nc2)C(=O)N[C@@H]2CCNC2)sc1C [Compound 1, reference compound]
4.45
